These measurements were taken from patent US20240246941A1.

# experimental-target: MAGE-A11:PCF11 (Homo sapiens (Human))
# Sequence (P43364 218-429): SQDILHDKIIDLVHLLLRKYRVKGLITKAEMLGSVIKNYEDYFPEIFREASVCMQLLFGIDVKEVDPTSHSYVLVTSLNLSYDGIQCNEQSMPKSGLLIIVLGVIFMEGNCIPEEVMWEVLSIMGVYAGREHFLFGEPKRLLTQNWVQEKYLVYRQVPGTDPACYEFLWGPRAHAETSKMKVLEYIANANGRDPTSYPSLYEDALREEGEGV
# protocol-description: TR-FRET single point screening at 15 μM
# Format: binding
# Design: unit not given here
# test-settings: single point TR-FRET screening of quinoline compounds against MAGE-A11:PCF11; 15 μM
Use 1 when the recorded TR-FRET signal is no lower than 10; use 0 when it is lower.

Answered cases to consult:
COc1cccc(CN(CCCNc2ccnc3cc(Cl)ccc23)Cc2ccccc2)c1O
1
CCCN(CCCNc1ccnc2cc(Cl)ccc12)Cc1ccc(OC)cc1
1
CCCN(CCCNc1c2ccc(Cl)cc2nc2ccc(OC)cc12)Cc1cc(F)cc(F)c1O
0
CCCN(CCCNc1ccnc2cc(Cl)ccc12)Cc1cc(C(F)(F)F)ccc1OC
1
COc1ccc2nc3cc(Cl)ccc3c(NCCCNCc3ccccc3N)c2c1
0
CCC(C)CNCCCNc1ccnc2cc(C(F)(F)F)ccc12 (stereo not shown)
1

Now look at this entry.
Problem: API: above_or_equal(metric=TR-FRET signal, cutoff=10) for item CCCN(CCCNc1ccnc2cc(Cl)ccc12)CCc1ccccc1
Result: 0

----------
# experimental-target: MAGE-A11:PCF11 (Homo sapiens (Human))
# protocol-description: TR-FRET single point screening at 15 μM
# Type: binding
# Set-up: unit not given here
# test-settings: single point TR-FRET screening of quinoline compounds against MAGE-A11:PCF11; 15 μM
# Source text: TR-FRET Assays and High-throughput Screen. Terbium-anti-GST antibody, 1 M Tris pH 7.5 1 M MgCl2 and 1 M DTT were purchased from Invitrogen (Carlsbad, CA), BSA was purchased from Sigma (St. Louis, MO). Dimethyl sulfoxide (DMSO) was purchased from Fisher Scientific (Pittsburgh, PA). Black 384-well low volume plates and 384-well polypropylene compound plates were purchased from Corning Incorporated (Tewksbury, MA). […]
Quick reference for TR-FRET signal among some molecules
Quick one: just the number, no unit, thanks!

Clc1ccc2c(NCCCN(Cc3ccccc3)Cc3c[nH]c4ccccc34)ccnc2c1 [SJ000520433]
40.19
CCCN(CCCNc1c2ccc(Cl)cc2nc2ccc(OC)cc12)Cc1cc(F)ccc1OC [SJ000520931]
1.847
CCCN(CCCNc1ccnc2cc(Cl)ccc12)Cc1cn(C)c2ccccc12 [SJ000522995]
−1.532
Clc1ccc2c(NCCCNCc3ccc[nH]3)ccnc2c1 [SJ000575192]
52.99

Now for another entry.
Problem: Field: TR-FRET signal (MAGE-A11:PCF11 (Homo sapiens (Human))). Entry: CCCN(CCCNc1ccnc2cc(Cl)ccc12)Cc1ccc2ccccc2c1 [SJ000523040]
Result: 32.85

----------
# experimental-target: MAGE-A11:PCF11 (Homo sapiens (Human))
# protocol-description: TR-FRET single point screening at 15 μM
# Format: binding
# Set-up: unit not given here
# test-settings: single point TR-FRET screening at 15 μM against MAGE-A11:PCF11
// returns NOT MET unless TR-FRET signal is strictly below -20, in which case MET

The following molecules have reported results that may help.
CCCCCN1CCC(Nc2ccnc3cc(Cl)ccc23)CC1 [SJ000523088]
NOT MET
CN1CCN(c2c(S(=O)(=O)c3ccccc3)cnc3ccc(Cl)cc23)CC1 [SJ000083950]
NOT MET
CCCN(CCCNc1c2ccc(Cl)cc2nc2ccc(OC)cc12)CCC(C)c1ccccc1 (stereo not drawn) [SJ000522731]
MET
CCCN(CCCNc1c2ccc(Cl)cc2nc2ccc(OC)cc12)Cc1ccc2ccccc2c1 [SJ000520953]
MET

Problem: Just wondering, is TR-FRET signal of Fc1ccc(CN2CCC(Nc3ccnc4cc(Cl)ccc34)CC2)cc1 [SJ000523093] below -20?
Result: NOT MET

Problem: Confirm or reject: TR-FRET signal of CCOC(=O)c1cnc2c(C)cc(Cl)cc2c1NCCN1CCOCC1 [SJ000129560] lies strictly below -20
Result: NOT MET

Problem: I wonder whether CCOc1ccc2ncc(S(=O)(=O)c3ccc(Cl)cc3)c(N3CCN(c4ccccc4)CC3)c2c1 [SJ000117054] has TR-FRET signal below -20. Can you tell?
Result: MET
